For each of the compounds below, state its IC50.
molecular target: hmGluR1 receptor (Homo sapiens, UniProt Q13255); construct: expressed in transfected cells; assay: IC50 determination: intracellular calcium mobilization (FLIPR) upon Quisqualate stimulation in CHO cells stably expressing hmGluR1; format: cell-based; conditions: against Quisqualate 1 μM (EC80), class symbols, read-out: mGIuR 1 IC50
Sequence (Q13255 19-1194): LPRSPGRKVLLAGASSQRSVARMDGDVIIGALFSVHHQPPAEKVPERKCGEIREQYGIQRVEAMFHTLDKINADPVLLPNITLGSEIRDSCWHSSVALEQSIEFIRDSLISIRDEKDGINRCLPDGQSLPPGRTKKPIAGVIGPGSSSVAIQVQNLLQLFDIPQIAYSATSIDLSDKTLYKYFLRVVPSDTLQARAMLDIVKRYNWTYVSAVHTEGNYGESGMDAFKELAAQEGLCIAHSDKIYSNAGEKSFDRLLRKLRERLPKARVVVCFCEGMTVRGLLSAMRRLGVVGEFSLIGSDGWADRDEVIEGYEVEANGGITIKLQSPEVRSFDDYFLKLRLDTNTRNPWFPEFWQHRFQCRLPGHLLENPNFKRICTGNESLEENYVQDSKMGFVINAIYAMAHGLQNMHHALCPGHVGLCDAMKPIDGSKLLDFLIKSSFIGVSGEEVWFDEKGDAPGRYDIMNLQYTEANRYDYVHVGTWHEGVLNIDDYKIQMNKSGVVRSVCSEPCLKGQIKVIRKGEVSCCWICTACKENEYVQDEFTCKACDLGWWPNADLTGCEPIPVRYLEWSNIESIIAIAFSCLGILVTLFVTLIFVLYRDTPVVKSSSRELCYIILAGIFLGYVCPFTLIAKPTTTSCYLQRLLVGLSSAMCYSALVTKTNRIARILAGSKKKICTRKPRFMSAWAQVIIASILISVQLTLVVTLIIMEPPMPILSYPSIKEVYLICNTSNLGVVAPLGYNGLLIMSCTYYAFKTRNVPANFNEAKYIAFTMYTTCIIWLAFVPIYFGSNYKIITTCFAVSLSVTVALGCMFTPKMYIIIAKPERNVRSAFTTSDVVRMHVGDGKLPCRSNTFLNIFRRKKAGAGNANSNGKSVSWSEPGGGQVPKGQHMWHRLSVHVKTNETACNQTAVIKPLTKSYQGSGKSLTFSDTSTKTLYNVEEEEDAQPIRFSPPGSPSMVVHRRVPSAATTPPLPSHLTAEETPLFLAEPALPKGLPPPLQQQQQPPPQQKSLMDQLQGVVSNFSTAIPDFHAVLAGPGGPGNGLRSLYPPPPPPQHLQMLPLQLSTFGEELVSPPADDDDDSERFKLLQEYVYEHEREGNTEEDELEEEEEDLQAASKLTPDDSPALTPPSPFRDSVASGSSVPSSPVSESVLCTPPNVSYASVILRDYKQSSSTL

// IC50 lookup, key: "CN(C)c1ccnc2sc3c(=O)n(C4CCCC4)cnc3c12"
< 0.05 µM

// IC50 lookup, key: COc1ccc(-n2cnc3c(sc4cccc(N(C)C)c43)c2=O)cc1 [103E]
0.05 to 0.15 µM

// IC50 lookup, key: "CN(C)c1ccnc2sc3c(=O)n(-c4ccc5c(c4)CC(=O)N5)cnc3c12"
> 1 µM

// IC50 lookup, key: "CC(=O)c1c(C)nc2sc3c(=O)n(-c4ccccc4)cnc3c2c1-c1ccc(Cl)cc1"
0.15 to 1 µM

// IC50 lookup, key: "COc1ccc(-n2cnc3c(sc4nccc(N(C)C)c43)c2=O)cc1C"
< 0.05 µM

// IC50 lookup, key: "CN(C)c1ccnc2sc3c(=O)n(-c4ccc(Br)cc4F)cnc3c12"
< 0.05 µM

// IC50 lookup, key: CCCN(C)c1ccnc2sc3c(=O)n(C4CCCCC4)cnc3c12 [28AN]
< 0.05 µM

// IC50 lookup, key: "CN(C)c1ccnc2sc3c(=O)n(-c4ccc5c(c4)OCCO5)cnc3c12"
< 0.05 µM

// IC50 lookup, key: "CN(C)c1ccnc2sc3c(=O)n(-c4ccc(OC(F)(F)F)cc4)cnc3c12"
< 0.05 µM

====

For each of the compounds below, state its IC50.
target: hmGluR1 receptor (Homo sapiens, UniProt Q13255); construct: expressed in transfected cells; test: IC50 determination: intracellular calcium mobilization (FLIPR) upon Quisqualate stimulation in CHO cells stably expressing hmGluR1; type: cell-based; details: against Quisqualate 1 μM (EC80), FLIPR calcium mobilization, read-out: IC50 Class

// IC50 lookup, key: C#CCNc1ccnc2sc3c(=O)n(-c4ccc(OC)cc4)cnc3c12 [28DQ]
< 50 nM

// IC50 lookup, key: COCC(C)Nc1ccnc2sc3c(=O)n(-c4ccc(Br)cc4)cnc3c12 (stereo not shown) [28HA]
150 to 1000 nM

// IC50 lookup, key: COc1ccc(-n2cnc3c(sc4nccc(Nc5ccccn5)c43)c2=O)cc1 [28FO]
150 to 1000 nM

// IC50 lookup, key: Cc1ccc(-n2cnc3c(sc4ncnc(NCC5CCCO5)c43)c2=O)cc1 (stereo not shown) [95FQ]
150 to 1000 nM

// IC50 lookup, key: O=c1c2sc3ncnc(Nc4ccccc4)c3c2ncn1-c1ccc(Br)cc1 [95GF]
> 1000 nM

// IC50 lookup, key: CCNc1ccnc2sc3c(=O)n(-c4ccncc4)cnc3c12 [28EG]
150 to 1000 nM

// IC50 lookup, key: O=c1c2sc3nccc(N4CCCC4)c3c2ncn1-c1ccc(F)cc1 [28GW]
150 to 1000 nM

// IC50 lookup, key: C=C(C)CNc1ncnc2sc3c(=O)n(C4CCCC4)cnc3c12 [95FL]
< 50 nM

// IC50 lookup, key: C=C(C)CNc1ncnc2sc3c(=O)n(-c4ccncc4)cnc3c12 [95FJ]
150 to 1000 nM

// IC50 lookup, key: O=c1c2sc3ncnc(NC4CC4)c3c2ncn1-c1ccc(C2CC2)cc1 [137C]
50 to 150 nM

// IC50 lookup, key: O=c1c2sc3ncnc(Nc4ccccc4)c3c2ncn1-c1ccccc1 [95GC]
> 1000 nM

// IC50 lookup, key: COc1ccnc2sc3c(=O)n(-c4ccc(C5CC5)cc4)cnc3c12 [137H]
> 1000 nM

// IC50 lookup, key: O=c1c2sc3nccc(NC4CC4)c3c2ncn1-c1ccncc1 [28ED]
150 to 1000 nM

====

Molecular target: hmGluR1 receptor (Homo sapiens, UniProt Q13255)
Construct: expressed in transfected cells
Assay: IC50 determination: intracellular calcium mobilization (FLIPR) upon Quisqualate stimulation in CHO cells stably expressing hmGluR1
Format: cell-based
Conditions: against Quisqualate 1 μM (EC80), class symbols, read-out: mGIuR 1 IC50
Method: A CHO cell line stably expressing hmGluR1 receptor was established. One day prior to assay, cells were split in growth media at concentration of 50,000 cells/well in a volume of 100 μl and seeded into black clear-bottom 96-well plates. After two to six hours, when cells were well attached to the plate, growth medium was replaced with assay medium (100 μL) consisting of DMEM high glucose, supplemented with GPT (1 U/mL) and Sodium pyruvate, 1 mM. […]
Quantity Name: IC50

// IC50 lookup, key: "Cc1ccc(-n2cnc3c(sc4nccc(N(C)C)c43)c2=O)cc1I"
50 to 150 nM

// IC50 lookup, key: "CNc1c(Br)cnc2sc3c(=O)n(C4CCCCC4)cnc3c12"
< 50 nM

// IC50 lookup, key: CN(C)c1ccnc2sc3c(=O)n(N)cnc3c12 [60H]
> 1000 nM

// IC50 lookup, key: CN(C)c1ccnc2sc3c(=O)n(N(c4ccccc4)c4ccccc4)cnc3c12 [60J]
> 1000 nM

// IC50 lookup, key: "CN(C)c1ccnc2sc3c(=O)n(-c4cccc(Cl)c4)cnc3c12"
< 50 nM

// IC50 lookup, key: "CC(C)c1ccc(-n2cnc3c(sc4nccc(N(C)C)c43)c2=O)cc1"
150 to 1000 nM

// IC50 lookup, key: "CN(C)c1ccnc2sc3c(=O)n(-c4ccc(C(N)=O)cc4)cnc3c12"
> 1000 nM

====

target: hmGluR1 receptor (Homo sapiens, UniProt Q13255); construct: expressed in transfected cells; experiment: IC50 determination: intracellular calcium mobilization (FLIPR) upon Quisqualate stimulation in CHO cells stably expressing hmGluR1; assay type: cell-based; conditions: against Quisqualate 1 μM (EC80), class symbols, read-out: mGIuR 1 IC50
pIC50: −log10 of the molar value.
For each of the molecules below, state its pIC50.

// pIC50 lookup, key: CN(C)c1ccnc2sc3c(=O)n(Cc4cccs4)cnc3c12 [15I]
6.00 to 6.82

// pIC50 lookup, key: O=c1c2sc3nccc(NC4CCC4)c3c2ncn1C1CCCCC1 [28W]
6.00 to 6.82

// pIC50 lookup, key: Cc1ccc(-n2cnc3c(sc4nc(N)nc(N)c43)c2=O)cc1 [71A]
> 7.30

// pIC50 lookup, key: "CN(C)c1ccnc2sc3c(=O)n(-c4ccc(O)cc4)cnc3c12"
> 7.30

// pIC50 lookup, key: "Cc1cc(N(C)C)c2c(n1)sc1c(=O)n(-c3ccccc3)cnc12"
> 7.30

// pIC50 lookup, key: CN(C)c1ccnc2sc3c(=O)n(NC(=O)C(F)(F)F)c(C(F)(F)F)nc3c12 [65B]
< 6.00

// pIC50 lookup, key: "CCCOc1ccc(-n2cnc3c(sc4nccc(N(C)C)c43)c2=O)cc1"
< 6.00

// pIC50 lookup, key: CCNc1ccnc2sc3c(=O)n(-c4ccc(C)cc4)cnc3c12 [131D]
> 7.30

// pIC50 lookup, key: CN(C)c1ncnc2sc3c(=O)n(-c4ccc5ncsc5c4)cnc3c12 [95C]
> 7.30

// pIC50 lookup, key: "Cc1ccc(-n2cnc3c(sc4nc(-c5cccs5)cc(C(F)(F)F)c43)c2=O)cc1"
6.00 to 6.82

====

biological target: hmGluR1 receptor (Homo sapiens); construct: expressed in transfected cells; assay: IC50 determination: intracellular calcium mobilization (FLIPR) upon Quisqualate stimulation in CHO cells stably expressing hmGluR1; format: cell-based; settings: against Quisqualate 1 μM (EC80), class symbols, read-out: mGIuR 1 IC50
pIC50: −log10 of the molar value.
Quantity Name: pIC50

// pIC50 lookup, key: Cc1ccc(-n2cnc3c(sc4nccc(NC5CC5)c43)c2=O)cc1 [28AP]
> 7.30

// pIC50 lookup, key: CNc1ccnc2sc3c(=O)n(C4CCCCC4)cnc3c12 [28X]
> 7.30

// pIC50 lookup, key: CCc1nc2c(sc3nccc(N(C)C)c32)c(=O)n1-c1ccc(OC)cc1 [116E]
6.82 to 7.30

// pIC50 lookup, key: CN(C)c1ccnc2sc3c(=O)n(-c4nnc(C(F)(F)F)s4)cnc3c12 [15AF]
6.00 to 6.82

// pIC50 lookup, key: CN(C)c1ccnc2sc3c(=O)n(-c4ccc5[nH]c(C(F)(F)F)nc5c4)cnc3c12 [7BD]
< 6.00

// pIC50 lookup, key: CN(C)c1ccnc2sc3c(=O)n(N4CCCCC4)cnc3c12 [60A]
> 7.30

// pIC50 lookup, key: CN(C)c1ccnc2sc3c(=O)n(-c4ccc(C(C)(C)C)cc4)cnc3c12 [7BB]
< 6.00

// pIC50 lookup, key: CN(C)c1ccnc2sc3c(=O)n(-c4ccc(Br)c(F)c4)cnc3c12 [7DV]
> 7.30

// pIC50 lookup, key: CN(C)c1ccnc2sc3c(=O)n(CC4CCCCC4)cnc3c12 [15C]
> 7.30

// pIC50 lookup, key: Cc1ccc(-n2cnc3c(sc4nccc(NC[C@@H](C)O)c43)c2=O)cc1 [29A]
6.00 to 6.82

// pIC50 lookup, key: CCCN(C)c1ccnc2sc3c(=O)n(-c4ccc(OC)cc4)cnc3c12 [28AO]
> 7.30

// pIC50 lookup, key: CN(C)c1ccnc2sc3c(=O)n(-c4ccc(F)cc4)cnc3c12 [7G]
> 7.30

// pIC50 lookup, key: O=c1c2sc3nccc(N4CCC4)c3c2ncn1C1CCCCC1 [28V]
6.00 to 6.82

// pIC50 lookup, key: O=c1c2sc3nccc(NC4Cc5ccccc5C4)c3c2ncn1C1CCCCC1 [72D]
< 6.00

// pIC50 lookup, key: CCN(C)c1ncnc2sc3c(=O)n(-c4ccc(C(F)(F)F)cc4)cnc3c12 [95Y]
> 7.30
